Known Kd of a selection of binders
Molecular target: Human BCMA (human) (UniProt Q02223)
Test: SPR, IgG on chip, huBCMA analyte
Note: a bare number is incomplete; add the unit.

1) A02_Rd4_6nM_C08 (antibody, V domains shown, IgG) VH: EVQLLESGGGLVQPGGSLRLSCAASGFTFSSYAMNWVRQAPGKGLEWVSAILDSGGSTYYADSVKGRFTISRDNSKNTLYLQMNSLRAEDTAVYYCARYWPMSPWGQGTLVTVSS VL: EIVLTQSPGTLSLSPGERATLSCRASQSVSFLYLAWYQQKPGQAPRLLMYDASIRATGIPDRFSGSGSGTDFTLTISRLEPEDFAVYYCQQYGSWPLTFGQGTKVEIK	0.188 nM

q: Dear colleague, I am looking for the recorded Kd of the following binder: C01_Rd4_6nM_C20 (antibody, V domains shown, IgG) VH: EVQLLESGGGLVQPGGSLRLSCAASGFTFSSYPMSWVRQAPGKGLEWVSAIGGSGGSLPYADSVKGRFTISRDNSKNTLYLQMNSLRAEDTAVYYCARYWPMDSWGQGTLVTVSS VL: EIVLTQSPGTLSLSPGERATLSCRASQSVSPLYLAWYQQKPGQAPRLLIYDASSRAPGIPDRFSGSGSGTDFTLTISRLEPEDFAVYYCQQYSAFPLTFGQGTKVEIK
a: 0.459 nM

q: Fill in: Kd of COMBO_Rd4_0.6nM_C20 (antibody, V domains shown, IgG) VH: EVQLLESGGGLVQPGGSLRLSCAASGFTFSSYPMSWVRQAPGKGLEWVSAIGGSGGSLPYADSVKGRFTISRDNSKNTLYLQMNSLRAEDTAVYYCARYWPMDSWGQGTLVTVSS VL: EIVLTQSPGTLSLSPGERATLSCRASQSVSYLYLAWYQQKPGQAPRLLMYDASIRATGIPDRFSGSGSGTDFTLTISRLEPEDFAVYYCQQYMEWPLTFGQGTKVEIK is ___
a: 0.019 nM
